List of IC50 values.
- Tested on: PC9luc-OSIMR cells
- assay-notes: MTT IC50 on PC9-Osimertinib resistant cells expressing a luciferase gene
- Format: cell-based
Just the number in µM, nothing appended.

These recorded examples may help you get a feel for the data.
C=CC(=O)Nc1cc(Nc2nccc(-c3cn(C)c4ccccc34)n2)c(OC)cc1N(C)CCN(C)C [Osimertinib, reference compound]    4.93
CCOc1ccc(CCCN2CCC(CC(=O)Nc3ccc(OCc4ccccc4)cc3)CC2)cc1    4.03

Below: the item to evaluate.
Request: # value lookup — system PC9luc-OSIMR cells, readout IC50, item `O=C(CC1CCN(CCCc2ccc(Cl)c(Cl)c2)CC1)Nc1ccc(OCc2ccccc2)cc1`
Response: 3.35
